- assay_system: T1, GST-KIAA1284 PDZ domain fusion protein (human, UniProt P08515 1-218 = GST)
- T1 construct: also called PDZK6; not shown: short vector-encoded linker
- T1 sequence (P08515 1-218, tags or fused parts left off): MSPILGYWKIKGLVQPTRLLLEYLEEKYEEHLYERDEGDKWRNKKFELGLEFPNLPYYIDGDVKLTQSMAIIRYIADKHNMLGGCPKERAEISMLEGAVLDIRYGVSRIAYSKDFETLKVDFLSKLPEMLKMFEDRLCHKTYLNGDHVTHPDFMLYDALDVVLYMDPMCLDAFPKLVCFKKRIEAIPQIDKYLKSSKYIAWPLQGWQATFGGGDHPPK
- test_description: modified G assay, peptide titrated against a constant amount of immobilized GST-PDZ fusion; Hill fit
Ends that are not written are not given here. * marks the point of attachment. Biotin = O=C1N[C@H]2[C@H](CS[C@H]2CCCCC(=O)*)N1
measured_parameter: pEC50
Give bare numbers, as −log10 of the molar value.

Item Biotin-YGRKKRRQRRRIGELQLSIA (Synthetic peptide, HPLC purified; pre-mixed with HRP-streptavidin in the modified G assay; also called Tat-hCLCA1 (SIA)) : provide pEC50
7.13
